assay: Selectivity index, ratio of cytotoxicity against human CEM cells to Antiviral activity against HIV1 RF; type: toxicity, cell-based, CCRF-CEM; details: read-out: Selectivity Index
Assay Readout: selectivity ratio
Just the number, please, no unit after it.

Could you tell me which selectivity ratio is on file for CC(=O)C1=C(O)C=C2Oc3c(C(C)=O)c(O)c(C)c(O)c3[C@@]2(C)C1=O [(+)-USNIC ACID] ? 3

* * *

selectivity ratio values, listed per item
test: Selectivity index, ratio of CTD50 for MDCK cells to ED50 for influenza virus A/California/07/09 (H1N1) pdm09; type: toxicity, cell-based; settings: dog, read-out: Selectivity Index
Just the number, please, no unit after it.

Previously resolved entries follow.
CC(=O)c1c(O)c(C)c(O)c2c1OC1=CC(=O)/C(=C(/C)NCC(=O)O)C(=O)[C@@]12C    6
CC(=O)c1c(O)c(C)c(O)c2c1OC1=CC(=O)/C(=C(/C)NCCC(=O)O)C(=O)[C@]12C    1
CC(=O)c1c(O)c(C)c(O)c2c1OC1=CC(=O)/C(=C(/C)Nc3ccc(F)cc3)C(=O)[C@]12C    3.9
CC(=O)c1c(O)c(C)c(O)c2c1OC1=Cc3c(c(C)nn3-c3ccccc3)[C@@H](O)[C@@]12C    13.2
CC(=O)c1c(O)c(C)c(O)c2c1OC1=CC(=O)/C(=C(/C)Nc3ccc(F)cc3)C(=O)[C@@]12C    8.8
CC(N)C12CC3CC(CC(C3)C1)C2 (configuration not stated)    5
CC(=O)c1c(O)c(C)c(O)c2c1OC1=CC(=O)/C(=C(/C)Nc3cccc(F)c3)C(=O)[C@]12C    8.8
CC(=O)C1=C(O)C=C2O[C@]34O[C@@]3(C(C)=O)C(=O)C(C)=C(O)[C@]4(O)[C@]2(C)C1=O    8

Could you tell me which selectivity ratio is on file for "CC(=O)c1c(O)c(C)c(O)c2c1OC1=CC(=O)/C(=C(/C)NCC(=O)O)C(=O)[C@]12C" ? 18.4

Could you tell me which selectivity ratio is on file for "CC(=O)c1c(O)c(C)c(O)c2c1OC1=CC(=O)/C(=C(/C)Nc3ccc(Cl)cc3)C(=O)[C@]12C" ? 11.7

Could you tell me which selectivity ratio is on file for "CC(=O)c1c(O)c(C)c(O)c2c1OC1=Cc3c(c(C)nn3-c3ccccc3)C(=O)[C@@]12C" ? 12.4

Could you tell me which selectivity ratio is on file for "CC(=O)c1c(O)c(C)c(O)c2c1OC1=CC(=O)/C(=C(/C)Nc3cccc(Br)c3)C(=O)[C@@]12C" ? 3.2

Could you tell me which selectivity ratio is on file for "CC(=O)c1c(O)c(C)c(O)c2c1OC1=CC(=O)/C(=C(/C)NCC(F)(F)C(F)F)C(=O)[C@@]12C" ? 19.4
